Tested on: P388
Protocol Summary: Inhibition ratio against the growth of P-388 cells at 10e-7 mol/L concentration determined by MTT method
Type: functional, Mus musculus
Quantity: Inhibition ratio
// keep it numeric: no unit symbol after the value

Observe how each entry below is paired with its result.
{"Compound Structure": "CC(=O)N1N=C(c2ccccc2)NN=C1c1ccccc1", "Inhibition ratio": 5.5}
{"Compound Structure": "O=C(CCl)N1N=C(c2ccccc2)NN=C1c1ccccc1", "Inhibition ratio": 3.6}
{"Compound Structure": "CC(C)C(=O)N1N=C(c2ccccc2)NN=C1c1ccccc1", "Inhibition ratio": 24.9}
{"Compound Structure": "CCC(=O)N1N=C(c2ccccc2)NN=C1c1ccccc1", "Inhibition ratio": 7.7}
{"Compound Structure": "O=C(CCl)N1N=C(c2ccc(C(F)(F)F)cc2)NN=C1c1ccc(C(F)(F)F)cc1", "Inhibition ratio": 11.3}

Give reported Inhibition ratio for CCC(=O)N1N=C(c2ccc(C(F)(F)F)cc2)NN=C1c1ccc(C(F)(F)F)cc1 (P388) 6.3

Give reported Inhibition ratio for CC(C)C(=O)N1N=C(c2ccc(C(F)(F)F)cc2)NN=C1c1ccc(C(F)(F)F)cc1 (P388) 16.2

Give reported Inhibition ratio for CC(=O)N1N=C(c2ccc(C(F)(F)F)cc2)NN=C1c1ccc(C(F)(F)F)cc1 (P388) 5

----------
Tested on: P388
Protocol Summary: Inhibition ratio against the growth of P-388 cells at 10e-6 mol/L concentration determined by MTT method
Format: functional, Mus musculus
Record true whenever Inhibition ratio is at 4 or higher; record false when lower.

Check the entry CC(C)C(=O)N1N=C(c2ccc(C(F)(F)F)cc2)NN=C1c1ccc(C(F)(F)F)cc1 : does Inhibition ratio equal or exceed 4? true

Check the entry CC(=O)N1N=C(c2ccc(C(F)(F)F)cc2)NN=C1c1ccc(C(F)(F)F)cc1 : does Inhibition ratio equal or exceed 4? false

Check the entry CCC(=O)N1N=C(c2ccc(C(F)(F)F)cc2)NN=C1c1ccc(C(F)(F)F)cc1 : does Inhibition ratio equal or exceed 4? true

Check the entry CC(=O)N1N=C(c2ccccc2)NN=C1c1ccccc1 : does Inhibition ratio equal or exceed 4? true

----------
Tested on: P388
Protocol Summary: Inhibition ratio against the growth of P-388 cells at 10e-6 mol/L concentration determined by MTT method
Assay type: functional, Mus musculus
Recorded Inhibition ratio, one value per entry.

Observe how each entry below is paired with its result.
{"Compound Structure": "O=C(CCl)N1N=C(c2ccc(C(F)(F)F)cc2)NN=C1c1ccc(C(F)(F)F)cc1", "Measurement Target": "P388", "Inhibition ratio": 2.2}
{"Compound Structure": "CC(C)C(=O)N1N=C(c2ccccc2)NN=C1c1ccccc1", "Measurement Target": "P388", "Inhibition ratio": 52}

Specify measured Inhibition ratio for CCC(=O)N1N=C(c2ccccc2)NN=C1c1ccccc1 . 7.6

----------
System: A549
Protocol Summary: Inhibition ratio against the growth of A-549 cells at 10e-5 mol/L concentration determined by SRB method
Type: functional, Homo sapiens
Recorded Inhibition ratio, one value per entry.
// keep it numeric: no unit symbol after the value

Observe how each entry below is paired with its result.
{"Compound Structure": "CC(=O)N1N=C(c2ccc(C(F)(F)F)cc2)NN=C1c1ccc(C(F)(F)F)cc1", "Inhibition ratio": 63.6}
{"Compound Structure": "CC(=O)N1N=C(c2ccccc2)NN=C1c1ccccc1", "Inhibition ratio": 0}
{"Compound Structure": "CC(C)C(=O)N1N=C(c2ccc(C(F)(F)F)cc2)NN=C1c1ccc(C(F)(F)F)cc1", "Inhibition ratio": 21}
{"Compound Structure": "O=C(CCl)N1N=C(c2ccccc2)NN=C1c1ccccc1", "Inhibition ratio": 95.8}
{"Compound Structure": "CCC(=O)N1N=C(c2ccccc2)NN=C1c1ccccc1", "Inhibition ratio": 11.1}

Specify measured Inhibition ratio for CC(C)C(=O)N1N=C(c2ccccc2)NN=C1c1ccccc1 . 46.6

Specify measured Inhibition ratio for O=C(CCl)N1N=C(c2ccc(C(F)(F)F)cc2)NN=C1c1ccc(C(F)(F)F)cc1 . 64.6

Specify measured Inhibition ratio for CCC(=O)N1N=C(c2ccc(C(F)(F)F)cc2)NN=C1c1ccc(C(F)(F)F)cc1 . 48.1

----------
System: A549
Protocol Summary: Inhibition ratio against the growth of A-549 cells at 10e-8 mol/L concentration determined by SRB method
Format: functional, Homo sapiens
Quantity: Inhibition ratio

Specify measured Inhibition ratio for CC(C)C(=O)N1N=C(c2ccc(C(F)(F)F)cc2)NN=C1c1ccc(C(F)(F)F)cc1 . 0

----------
Test system: A549
Protocol Summary: Inhibition ratio against the growth of A-549 cells at 10e-8 mol/L concentration determined by SRB method
Type: functional, Homo sapiens
Quantity: Inhibition ratio
// keep it numeric: no unit symbol after the value

{"Compound Structure": "CCC(=O)N1N=C(c2ccccc2)NN=C1c1ccccc1", "Inhibition ratio": 0}
{"Compound Structure": "O=C(CCl)N1N=C(c2ccc(C(F)(F)F)cc2)NN=C1c1ccc(C(F)(F)F)cc1", "Inhibition ratio": 0}
{"Compound Structure": "CC(=O)N1N=C(c2ccccc2)NN=C1c1ccccc1", "Inhibition ratio": 0}
{"Compound Structure": "CCC(=O)N1N=C(c2ccc(C(F)(F)F)cc2)NN=C1c1ccc(C(F)(F)F)cc1", "Inhibition ratio": 9}
{"Compound Structure": "O=C(CCl)N1N=C(c2ccccc2)NN=C1c1ccccc1", "Inhibition ratio": 13}

Specify measured Inhibition ratio for CC(C)C(=O)N1N=C(c2ccccc2)NN=C1c1ccccc1 . 29.5

Specify measured Inhibition ratio for CC(=O)N1N=C(c2ccc(C(F)(F)F)cc2)NN=C1c1ccc(C(F)(F)F)cc1 . 0
